All values here come from ChEMBL document CHEMBL1149741.

- protocolDescription: Toxicity against Artemia salina
- Type: organism-based
- conditionParameters: in vivo
propertyLabel: log10 of LC50 (log10 of the value in mg/L)
Form field - Quantity: LC50; Unit: mg/L; Scale: log10

Reference set (3 entries):
C#C[C@H](O)/C=C/CCCCCCCCCCC(C)CCCC (some centres not stated) = -0.10
C#C[C@H](O)CCCCCCCCCCCCC(C)CCCC (some centres not stated) = 0.08
C#C[C@H](O)CCCCCCCCCCCCCCCC(C)C = 0.00

-- ask Identify the reported log10 of LC50 for the following entry. C#C[C@H](O)/C=C/CCCCCCCCCCCCCC(C)C
-- reply -0.10

-- ask Identify the reported log10 of LC50 for the following entry. C#C[C@H](O)/C=C/CCCCCCCCC(C)CCCCCCCC (some centres not stated)
-- reply -1.52

-- ask Identify the reported log10 of LC50 for the following entry. C#C[C@H](O)/C=C/CCCCCCCCC/C=C/CCCCCC
-- reply -0.40

-- ask Identify the reported log10 of LC50 for the following entry. C#C/C=C/CCCCCCCCCC/C=C\CCCCCC
-- reply 0.04
